Biological target: Corticotropin-releasing factor receptor 2/Corticotropin-releasing factor-binding protein (Homo sapiens, UniProt P24387+Q13324)
Sequence (Q13324 whole entry): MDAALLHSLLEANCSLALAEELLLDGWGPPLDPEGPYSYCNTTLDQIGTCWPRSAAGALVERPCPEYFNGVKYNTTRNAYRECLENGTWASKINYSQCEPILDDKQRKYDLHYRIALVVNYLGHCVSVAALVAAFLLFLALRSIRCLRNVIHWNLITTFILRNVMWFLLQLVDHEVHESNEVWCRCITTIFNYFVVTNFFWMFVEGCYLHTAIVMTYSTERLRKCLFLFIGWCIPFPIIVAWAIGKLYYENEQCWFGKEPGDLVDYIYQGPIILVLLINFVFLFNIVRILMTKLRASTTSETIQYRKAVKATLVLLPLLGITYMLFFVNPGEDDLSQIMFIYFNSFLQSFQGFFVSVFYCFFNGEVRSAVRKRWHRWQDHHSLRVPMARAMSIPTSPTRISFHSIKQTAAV
Sequence (P24387 whole entry): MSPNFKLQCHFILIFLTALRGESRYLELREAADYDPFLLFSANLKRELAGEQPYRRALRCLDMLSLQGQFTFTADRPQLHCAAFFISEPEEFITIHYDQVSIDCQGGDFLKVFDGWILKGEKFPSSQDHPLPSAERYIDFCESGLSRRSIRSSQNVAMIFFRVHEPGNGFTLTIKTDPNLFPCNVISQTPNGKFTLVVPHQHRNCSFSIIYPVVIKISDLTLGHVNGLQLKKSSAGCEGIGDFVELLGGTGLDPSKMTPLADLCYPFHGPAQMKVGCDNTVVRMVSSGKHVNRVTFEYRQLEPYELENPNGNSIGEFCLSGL
Assay: activators of CRF receptor 2 with binding protein – uHTS hits, confirmation (AID 602473)
Type: functional
Settings: read-out: EC50_Mean
Active and inactive are the calls of the source.
Outcome codes: active, inactive

COc1ccc(/C=C/C(=O)NCc2cn(C)nc2C)cc1COc1ccc(Cl)cc1Br	inactive
C/C=C(\C)C(=O)OC1CC(C)(C)C[C@H]2C3=CC[C@@H]4[C@@]5(C)CCC(O[C@@H]6O[C@@H](C(=O)O)[C@@H](O)C(O[C@@H]7OC[C@H](O)[C@@H](O)[C@@H]7O[C@@H]7OC(CO)C(O)[C@@H](O)[C@@H]7O)C6O[C@@H]6OC(CO)C(O)C(O)C6O)[C@@](C)(CO)[C@@H]5CC[C@]4(C)[C@]3(C)CC(O)[C@@]12CO (some centres undefined)	active
O=[N+]([O-])c1ccc(-c2ccc(/C=N/Nc3nc(N4CCCC4)nc(N4CCCC4)n3)o2)cc1	active
COCCNc1nc2c(S(=O)(=O)c3cc(C)ccc3C)nnn2c2ccccc12	inactive
Cc1nn(-c2ccccc2)c(Cl)c1/C=C/C(=O)c1ccc(O)cc1	inactive
CN(CCO)S(=O)(=O)c1ccc2c(c1)C(=NNC(N)=O)c1cc(S(=O)(=O)N(C)CCO)ccc1-2	inactive
COc1cccc(C(=O)N2CCCC(CCC(=O)NCc3ccc(F)c(F)c3)C2)c1 (centres undefined)	inactive
CCOC(=O)c1sc(-c2ccc(F)cc2)cc1NC(=O)Nc1ccccc1OC	inactive
O=C(CSc1nnc(C2COc3ccccc3O2)o1)NC1CCCCC1 (centres undefined)	inactive
O=C(NCc1ccc(OC(F)(F)F)cc1)c1cccc2c1C(=O)c1ccc(N3CCC(Cc4ccccc4)CC3)cc1S2(=O)=O	active
S=C(NCc1ccccc1)Nc1ccc(Cl)cc1	inactive
NC(Cc1ccc(O)cc1)C(=O)NN=Cc1ccc(N(CCCl)CCCl)cc1 (centres undefined)	inactive
Cc1ccsc1/C=C1\Oc2cc(O)ccc2C1=O	active
O=[N+]([O-])c1ccc(NS(=O)(=O)c2ccccc2)c(Cl)c1	inactive

* * *

Target: Heat shock factor protein 1 (Mus musculus, UniProt P38532)
Sequence (P38532 whole entry): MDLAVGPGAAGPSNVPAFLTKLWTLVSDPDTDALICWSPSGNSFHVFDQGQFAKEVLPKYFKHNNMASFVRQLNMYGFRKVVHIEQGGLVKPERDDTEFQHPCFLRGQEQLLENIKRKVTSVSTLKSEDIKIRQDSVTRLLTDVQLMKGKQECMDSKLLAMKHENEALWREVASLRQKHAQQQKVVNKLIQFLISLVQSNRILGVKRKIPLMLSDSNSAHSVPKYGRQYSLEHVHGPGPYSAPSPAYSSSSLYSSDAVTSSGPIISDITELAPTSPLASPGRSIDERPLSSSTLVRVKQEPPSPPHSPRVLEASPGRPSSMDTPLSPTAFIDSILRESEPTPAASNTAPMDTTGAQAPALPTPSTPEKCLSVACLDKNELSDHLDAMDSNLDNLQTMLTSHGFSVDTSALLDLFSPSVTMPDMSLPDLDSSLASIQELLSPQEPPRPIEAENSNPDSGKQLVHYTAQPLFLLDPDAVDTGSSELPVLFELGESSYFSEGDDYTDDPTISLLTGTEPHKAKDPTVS
Test: decrease of HSF1-responsive luciferase luminescence – cell-based, NIH3T3, dose retest, confirmation (AID 2382);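 further: NIH3T3 fibroblasts with HSF1-driven luciferase reporter stressed by proteasome inhibitor MG132; luminescence from HSF1-driven luciferase expression after 8 hours of MG132 stress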
Type: functional
The source made the active and inactive calls.
Quick list: EC50 per entry.
parameter: EC50

COc1ccc(CNc2nc3c(c(=O)[nH]c(=O)n3C)n2Cc2ccccc2C)cc1	> 195 µM (not active)
O=C(NC1=NCCS1)C1COc2ccccc2O1 (centres undefined)	8.01 µM (active)
CC(C)(C)n1nnnc1CN1CCC(NC(=O)NC2CCCCC2)CC1	33.9 µM (active)
Cn1c(=O)cc(SCC(=O)N2CCN(C(=O)c3ccco3)CC2)c2ccccc21	> 195 µM (not active)
Cc1c(NS(=O)(=O)c2cc(C(=O)NCCN(C)C)ccc2Cl)c(=O)n(-c2ccccc2)n1C	> 195 µM (not active)
Cc1cc(C(=O)COC(=O)c2ccco2)c(C)n1Cc1ccco1	< 0.16 µM (active)
COc1ccc(-n2c(C)cc(-c3csc(NC(=O)c4ccc(S(=O)(=O)N(C)C)cc4)n3)c2C)cc1	> 195 µM (not active)
CCOC(=O)c1c(C)[nH]c(C)c1S(=O)(=O)NCCc1cccs1	> 195 µM (not active)
C/C=C/c1ccc(OCC(=O)Nc2ccc(OC)c(OC)c2)c(OC)c1	> 195 µM (not active)
COc1ccc(CCNC(=O)Cc2cccs2)cc1	> 195 µM (not active)
COc1ccc2oc(C(=O)OCC(=O)N(C)CC(=O)Nc3ccc(C)cc3)c(C)c2c1	> 195 µM (not active)
COc1cccc(CC(=O)N[C@@H](CCSC)c2nc3ccccc3[nH]2)c1	> 195 µM (not active)
NCCN1C(=O)S/C(=C\c2ccc3c(c2)OCO3)C1=O	1.48 µM (active)
CC1(OC(=O)CCc2ccccc2)C(=O)C=C2C=C(c3ccc(C#N)cc3)N(CCc3ccccn3)C=C2C1=O (centres undefined)	> 195 µM (not active)

* * *

Target: Streptokinase A (Streptococcus pyogenes serotype M1, UniProt P10520)
Sequence (P10520 whole entry): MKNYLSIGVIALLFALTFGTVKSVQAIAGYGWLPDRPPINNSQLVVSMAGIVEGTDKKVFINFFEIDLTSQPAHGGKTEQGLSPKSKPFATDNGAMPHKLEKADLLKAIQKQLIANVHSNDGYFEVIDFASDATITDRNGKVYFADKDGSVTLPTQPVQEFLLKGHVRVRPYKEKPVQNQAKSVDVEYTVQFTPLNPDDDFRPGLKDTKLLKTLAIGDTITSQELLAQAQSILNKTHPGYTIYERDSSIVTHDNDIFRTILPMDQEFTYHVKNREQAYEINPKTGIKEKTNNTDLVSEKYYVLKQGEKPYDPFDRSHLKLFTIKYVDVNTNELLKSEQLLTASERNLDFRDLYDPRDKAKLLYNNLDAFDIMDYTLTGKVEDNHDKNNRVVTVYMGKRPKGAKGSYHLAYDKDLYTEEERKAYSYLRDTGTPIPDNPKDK
Assay: viability-normalized secreted streptokinase activity reduction – plasminogen activation absorbance, OD405, dose response (AID 1914);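 further: secreted streptokinase activity via plasminogen activation per viability signal from cell pellet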
Assay type: functional, Streptococcus pyogenes M1 GAS
The source made the active and inactive calls.
parameter: EC50

c1ccc(OCc2nc3c4c(ncn3n2)-c2ccccc2CC42CCCC2)cc1	22 µM (active)
CC1CCN(Cc2c(C(=O)N/N=C/c3cc(Br)ccc3O)nnn2-c2nonc2N)CC1	40.3 µM (inconclusive)
CCCCCCCCOC(=O)/C=C/c1c(C)nc(O)nc1O	2.38 µM (active)
CCn1c(-c2ccccc2)c[nH]c1=S	> 150 µM (not active)
COC(=O)c1cnc(Oc2ccc(NC(=O)NC(=O)c3c(F)cccc3Cl)cc2)cc1C(F)(F)F	1.95 µM (active)
c1ccc(-c2nc(C3CCCCC3)c3sccc3n2)cc1	23.9 µM (active)
CO[C@@]1(NC(=O)Cc2cccs2)C(=O)N2C(C(=O)O)=C(COC(N)=O)CS[C@@H]21 [CEFOXITIN SODIUM]	> 150 µM (not active)
O=C(Nc1ccc([N+](=O)[O-])cc1)Nc1nc(-c2ccc(Cl)s2)cs1	44.8 µM (inconclusive)
O=[N+]([O-])c1cc(Cl)cc(/C=N/Nc2nc3ccccc3s2)c1O	> 150 µM (not active)
COc1ccc(-c2c(C#N)c(N)nc3sc(C(=O)c4ccccc4)c(N)c23)cc1	> 150 µM (not active)
CCC(C(=O)NCC1CCCO1)n1nc(C)c2sc3ccccc3c2c1=O (centres undefined)	> 150 µM (not active)
O=C1NC(=O)/C(=C/c2ccccc2Oc2ccc(Cl)cc2)S1	> 50 µM (not active)
COc1cnc(-c2ccccn2)nc1Oc1ccccc1	> 150 µM (not active)
Cc1ccc(-c2cc(-c3ccccc3Cl)[nH]n2)c(O)c1	20.1 µM (inconclusive)

* * *

Molecular target: Cytochrome P450 2C19 (Homo sapiens, UniProt P33261)
Sequence (P33261 whole entry): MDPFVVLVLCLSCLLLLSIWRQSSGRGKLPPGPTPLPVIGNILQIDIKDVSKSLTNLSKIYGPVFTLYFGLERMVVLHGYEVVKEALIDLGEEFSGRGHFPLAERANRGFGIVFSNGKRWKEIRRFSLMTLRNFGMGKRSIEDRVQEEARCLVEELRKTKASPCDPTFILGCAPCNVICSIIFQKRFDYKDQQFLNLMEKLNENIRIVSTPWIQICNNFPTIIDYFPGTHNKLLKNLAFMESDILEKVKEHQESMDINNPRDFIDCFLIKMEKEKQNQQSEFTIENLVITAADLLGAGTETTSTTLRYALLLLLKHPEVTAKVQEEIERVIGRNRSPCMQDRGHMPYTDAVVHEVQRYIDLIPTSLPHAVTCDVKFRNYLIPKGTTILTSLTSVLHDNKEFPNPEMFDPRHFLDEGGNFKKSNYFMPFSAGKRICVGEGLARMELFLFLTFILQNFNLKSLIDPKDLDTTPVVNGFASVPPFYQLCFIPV
Test: Cytochrome panel assay with activity outcomes. Panel member name: p450-cyp2c19 Compounds with AC50 equal or less than 10 uM are considered active
Assay type: functional
Settings: read-out: AC50
Quick list: AC50 per entry.
parameter: AC50

COc1ccccc1-c1nc(NCc2ccccc2)c2ccccc2n1	25.1 µM (inconclusive)
CCCc1nnc(NC(=O)C(CC)OC(=O)c2cc(C)nc3ccccc23)s1 (configuration not stated)	15.8 µM (inconclusive)
CN(C)CCCNC(=O)CCc1nc(O)c2ccccc2n1	7.08 µM (inconclusive)
Cc1noc(C)c1-c1nc(N(C)C)c2ccccc2n1	25.1 µM (inconclusive)
O=C(OC1CCN(c2ccc([N+](=O)[O-])cc2)CC1)c1ccccc1	0.794 µM (inconclusive)
Cc1nonc1NCn1nnc2ccccc21	14.1 µM (inconclusive)
COc1cccc(-c2nc(NCc3cnc(C)cn3)c3ccccc3n2)c1	25.1 µM (inconclusive)

* * *

Biological target: Glucose-6-phosphate 1-dehydrogenase (Homo sapiens)
Sequence (P11413 whole entry): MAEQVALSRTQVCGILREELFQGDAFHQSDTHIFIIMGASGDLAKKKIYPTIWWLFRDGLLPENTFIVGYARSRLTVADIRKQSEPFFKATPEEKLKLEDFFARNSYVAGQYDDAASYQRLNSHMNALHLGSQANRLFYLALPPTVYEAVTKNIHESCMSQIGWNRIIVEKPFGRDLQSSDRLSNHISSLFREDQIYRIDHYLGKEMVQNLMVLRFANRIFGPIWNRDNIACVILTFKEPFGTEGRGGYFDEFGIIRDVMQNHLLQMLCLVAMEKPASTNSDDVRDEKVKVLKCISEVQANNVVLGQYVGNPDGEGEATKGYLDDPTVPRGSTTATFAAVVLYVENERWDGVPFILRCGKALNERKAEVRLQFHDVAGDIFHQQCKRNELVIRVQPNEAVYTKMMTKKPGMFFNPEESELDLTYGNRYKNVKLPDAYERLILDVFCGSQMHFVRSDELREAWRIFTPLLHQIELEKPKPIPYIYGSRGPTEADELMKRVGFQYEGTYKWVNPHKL
Experiment: inhibition of Homo sapiens G6PD, dose series – biochemical, fluorescence, selectivity assay for P. falciparum G6PD inhibitor project, dose response (AID 504792)
Assay type: functional
Calls of active or inactive are those of the source.
parameter: IC50

COc1ccc(C2(CNC(=O)c3ccc(OC)c([N+](=O)[O-])c3)CCCCC2)cc1OC	60.7 µM (inactive)
CC1=NOC(=O)/C1=C\c1ccc(-c2ccccc2Br)o1	> 80 µM (inactive)
CN(C)c1ccc(C=c2c3ccccc3n3c2c2ccccc2[n+]3C)cc1	> 80 µM (inactive)
OCCN1CCN(C(=S)c2ccc(Cl)c(Cl)c2)CC1	> 80 µM (inactive)

* * *

Biological target: Replicative DNA helicase DnaB (Mycobacterium tuberculosis)
Sequence (P9WMR3 1-399, added parts left off): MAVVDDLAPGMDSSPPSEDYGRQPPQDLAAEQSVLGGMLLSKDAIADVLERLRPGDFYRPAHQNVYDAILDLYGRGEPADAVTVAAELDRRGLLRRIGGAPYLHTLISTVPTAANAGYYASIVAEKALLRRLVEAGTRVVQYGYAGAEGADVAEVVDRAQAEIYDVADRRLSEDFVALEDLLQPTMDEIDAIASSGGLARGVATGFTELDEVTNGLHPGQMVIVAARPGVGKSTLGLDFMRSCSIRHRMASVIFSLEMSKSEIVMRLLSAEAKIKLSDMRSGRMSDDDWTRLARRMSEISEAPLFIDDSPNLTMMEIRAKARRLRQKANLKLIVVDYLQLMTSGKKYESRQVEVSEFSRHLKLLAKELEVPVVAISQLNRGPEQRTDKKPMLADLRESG
Assay: DnaB intein splicing inhibitors, dose response, biochemical, cell-free fluorescence (AID 449749)
Assay type: functional
Activity calls are given as the source filed them.
Outcome codes: y = active, n = inactive

Cc1n[nH]c2c1C1(CCC3(CC1)OCCO3)C(C#N)=C(N)O2	n
CCCCc1ccc(NC(=O)CSCc2cc(=O)[nH][nH]2)cc1	y
COC(=O)COc1ccc(C(c2c(C)n[nH]c2O)c2c(C)n[nH]c2O)cc1	y
O=C(CCl)NN=C(c1ccccc1)c1ccccc1	y
CSc1ccc(C(c2c(C)n[nH]c2O)c2c(C)n[nH]c2O)cc1	y
